# assaySystem: T1, EpCAM (UniProt P16422 P16422:24-265)
# T1 sequence: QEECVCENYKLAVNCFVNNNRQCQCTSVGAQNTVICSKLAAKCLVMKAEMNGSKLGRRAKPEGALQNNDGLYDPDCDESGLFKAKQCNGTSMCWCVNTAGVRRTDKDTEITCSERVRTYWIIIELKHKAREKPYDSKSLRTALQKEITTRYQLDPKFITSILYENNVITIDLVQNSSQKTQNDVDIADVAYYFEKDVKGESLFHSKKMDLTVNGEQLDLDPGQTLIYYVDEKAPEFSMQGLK
# experimentSummary: SPR; immobilized biotinylated aptamer, HBS-EP+ buffer, global fit
# testConditions: label: biotin
recordedMetric: pKd
Scale for pKd: -log10 of concentration given in mol/L; no unit attached.

1) CTGTGAGGCGTACTGCGGTGAGCCTCTCATTA (ssDNA, 3' tail of 6 thymines and biotin) [BTX187269] ... 8.15

Using the record for CCCCCCGAATCACATGACTTGGGCGGGGGTCG (ssDNA, 3' tail of 6 thymines and biotin) [Aptamer 4] , report its pKd.
8.00
